# System: Staphylococcus aureus
# assayOverview: Antibacterial activity against Staphylococcus aureus RN4220
# Format: functional
testReadout: MIC (µg/mL)
Expressed in µg/mL, but write only the number.

{"testSmiles": "O=[N+]([O-])c1ccc(Nc2nc(NCCN3CCOCC3)nc(Nc3ccc(Cl)cc3)n2)cc1", "targetSystem": "Staphylococcus aureus", "unitsLabel": "µg/mL", "MIC": 4}

// moving on: another record for MIC
query: MIC of Clc1ccc(Nc2nc(NCCN3CCOCC3)nc(Nc3ccccc3)n2)cc1 on Staphylococcus aureus?
result: 64

----------
Below, each of the molecules is paired with its reported MIC value.
# Test system: Staphylococcus aureus
# assayOverview: Antibacterial activity against Staphylococcus aureus RN4220
# Type: functional

Use the examples below as a reference point.
{"testSmiles": "CC(=O)c1ccc(Nc2nc(Nc3ccc(Br)cc3)nc(Nc3ccc(Br)cc3)n2)cc1", "MIC": "> 64 µg/mL"}
{"testSmiles": "Fc1ccc(Nc2nc(Nc3ccc(F)c(F)c3)nc(N3CCN(CCOc4ccccc4)CC3)n2)cc1F", "MIC": "> 128 µg/mL"}

Moving on to the next molecule.
query: Which MIC value belongs to Fc1ccc(Nc2nc(Nc3ccc(F)c(F)c3)nc(N3CCN(Cc4ccccc4)CC3)n2)cc1F ?
result: > 128 µg/mL
